test system: C. elegans; experiment: motility assay; format: in vivo; set-up: key: normal (−); slow (+); very slow (++); not motile/paralyzed (+++); conditions: dilution 1/200 of stock (10.24 μg/μL; SK-03-92 1.024 μg/μL); Ive 1 ng/μL in all wells
Measurement type: Movement score, 1/200

For the compound COc1cc(O)cc(/C=C/Oc2cccc(OC)c2)c1 [Compound A8] , report Movement score, 1/200.
++

Let me know recorded Movement score, 1/200 for COc1cc(O)cc(/C=C/c2ccc3ccccc3c2)c1 [SK-03-28F2] , thanks.
+++

Identify measured Movement score, 1/200 corresponding to COc1cc(O)cc(/C=C/c2cccc(O)c2)c1 [SK-04-03]
++

----------
tested on: Staphylococcus aureus ATCC 29213; assay: microbe, parasite or virus in culture; type: cell-based; conditions: Staphylococcus aureus, ATCC29213; per-compound listing, Example 6; read-out: MIC S. aureus
I'd be grateful if you could share measured MIC for these entries.

Could you please provide reported MIC for COc1cc(O)cc(/C=C/Sc2cccc3ccccc23)c1 ? Thanks!
4 µg/mL

Identify measured MIC corresponding to COc1ccc(O/C=C/c2cc(O)cc(OC)c2)cc1
32 µg/mL

// Input: COc1cc(O)cc(/C=C/Oc2cccc(C)c2)c1 . Output its MIC only.
16 µg/mL

Provide measured MIC value, entry: Oc1cc(O)cc(/C=C/c2ccc3ccccc3c2)c1
8 µg/mL

Return the recorded MIC value; entry: COc1cc(O)cc(/C=C/Oc2cccc3ccccc23)c1
32 µg/mL

Provide MIC value for the following compound: COc1cc(O)cc(/C=C/Oc2ccccc2)c1
32 µg/mL

State, in one line, measured MIC of COc1cc(O)cc(/C=C/Sc2ccccc2)c1
16 µg/mL

Look up and report measured MIC for this entry: COc1cc(O)cc(/C=C/Sc2ccccc2C(C)C)c1
16 µg/mL

Quote MIC reported for COc1cc(O)cc(/C=C/Sc2ccc3ccccc3c2)c1 please.
4 µg/mL

Give the reported value of MIC for this record: COc1cc(O)cc(/C=C/Oc2ccc3ccccc3c2)c1
16 µg/mL

Note MIC for the compound shown: COc1cc(O)cc(/C=C/Oc2ccc(C)cc2)c1
16 µg/mL

Respond only with MIC recorded for COc1cc(O)cc(/C=C/Oc2ccccc2C)c1
16 µg/mL

Return value of MIC for input COc1cc(O)cc(/C=C/c2ccsc2)c1 , no commentary.
16 µg/mL

Input COc1cc(O)cc(/C=C/Sc2ccc(C(C)(C)C)cc2)c1 , output reported MIC.
16 µg/mL

Return the recorded MIC value; entry: COc1cc(O)cc(/C=C/c2cccs2)c1
32 µg/mL

----------
system: Bacillus cereus; test: microbe, parasite or virus in culture; format: cell-based; details: Table 3
Measurement type: MIC B. cereus, G+ (anthrax surrogate)
Could you give the number and then its unit, please?

Name the recorded MIC B. cereus, G+ (anthrax surrogate) of the compound listed here: COc1cc(O)cc(/C=C/Oc2cccc(C)c2)c1
16 µg/mL

Look up MIC B. cereus, G+ (anthrax surrogate) of COc1ccc(O/C=C/c2cc(O)cc(OC)c2)cc1 and report it.
64 µg/mL

Determine its reported MIC B. cereus, G+ (anthrax surrogate): COc1cc(O)cc(/C=C/Oc2ccccc2C)c1
64 µg/mL
